- Read-out: Interleukin-1 alpha (IL1a), IL1A (gene 3552)
- Procedure details: BSK_BE3C_IL1a: BioMAP Diversity Plus: BE3C Assay for Interleukin-1 alpha (IL1a) Biomarker Activity (AID 2283016)
- Reported conditions: primary human bronchial epithelial cells; actives raise or lower the signal
Active and inactive are the calls of the source. How the source made its calls: active means hit-call score of the fitted dose curve at least 0.9, where 1 is the maximum; inactive means score below 0.9.
Use one of these outcomes when replying: active, inactive

Use the examples below as a reference point.
[
  {
    "Compound": "Nn1cnnc1",
    "Class": "inactive"
  },
  {
    "Compound": "ClC1=C(Cl)[C@]2(Cl)[C@@H]3[C@@H]4C[C@@H]([C@H]5O[C@@H]45)[C@@H]3[C@@]1(Cl)C2(Cl)Cl",
    "Class": "inactive"
  },
  {
    "Compound": "CC(C)(c1ccccc1)c1ccc(O)cc1",
    "Class": "active"
  },
  {
    "Compound": "N#Cc1ccc(N(CC(N)=O)CC(F)(F)F)cc1C(F)(F)F",
    "Class": "inactive"
  },
  {
    "Compound": "O=C(NC(=O)c1c(F)cccc1F)Nc1cc(Cl)c(OC(F)(F)C(F)F)c(Cl)c1",
    "Class": "inactive"
  },
  {
    "Compound": "Cc1cc2c3c(c1)C(c1ccccc1)=N[C@@H](NC(=O)c1ccncc1)C(=O)N3CC2",
    "Class": "inactive"
  },
  {
    "Compound": "CCSC(=O)N(CC)C1CCCCC1",
    "Class": "inactive"
  },
  {
    "Compound": "CC1=C2C[C@H]3[C@@H](CC=C4C[C@@H](O)CC[C@@]43C)[C@@H]2CC[C@]12O[C@@H]1C[C@H](C)CN[C@H]1[C@H]2C",
    "Class": "inactive"
  },
  {
    "Compound": "ClC1=C(Cl)[C@]2(Cl)[C@@H]3[C@H]4C[C@H]([C@@H]5O[C@H]45)[C@@H]3[C@@]1(Cl)C2(Cl)Cl",
    "Class": "inactive"
  },
  {
    "Compound": "CCC(C)(CC)c1cc(NC(=O)c2c(OC)cccc2OC)on1",
    "Class": "inactive"
  }
]

Ask | Given `C=CC(=O)NCNC(=O)C=C` , state the outcome it received in this test.
Reply | inactive

Ask | Given `CCCCCCCCCC[N+](C)(C)CCCCCCCCCC` , state the outcome it received in this test.
Reply | active

Ask | Given CCC(C)c1cc([N+](=O)[O-])cc([N+](=O)[O-])c1O (stereo unspecified) , state the outcome it received in this test.
Reply | inactive

Ask | Given `O=C(NC(=O)c1cc(F)c(F)cc1Cl)Nc1cc(F)ccc1N1CCC(C(=O)O)CC1` , state the outcome it received in this test.
Reply | inactive

Ask | Given `C[C@]12CCC(=O)C=C1CC[C@@H]1[C@@H]2CC[C@]2(C)C(=O)CC[C@@H]12` , state the outcome it received in this test.
Reply | inactive

Ask | Given `C=CC(N)=O` , state the outcome it received in this test.
Reply | inactive

Ask | Given `Cc1ccccc1CO[C@@H]1C[C@@]2(C(C)C)CC[C@]1(C)O2` , state the outcome it received in this test.
Reply | inactive

Ask | Given `Nc1ccc(-c2ccc(N)cc2)cc1` , state the outcome it received in this test.
Reply | inactive

Ask | Given `c1ccc(-c2ccccc2)cc1` , state the outcome it received in this test.
Reply | inactive

Ask | Given `Oc1ccc(Cl)cc1Cl` , state the outcome it received in this test.
Reply | inactive

Ask | Given `Cc1cc(-c2ccc(N)c(C)c2)ccc1N` , state the outcome it received in this test.
Reply | inactive
